# run-description: Growth inhibition of human EKVX cells after 48 hrs by SRB assay
# Assay type: functional
Measured log10 of TGI by item
Log10 applied to TGI; unit prior to transform: µM.

Guide cases for log10 of TGI, answers given:
OCCCc1n(Cc2ccc3ccccc3c2)c2ccccc2[n+]1Cc1ccc2ccccc2c1.[Br-]
1.29
Cc1cc2c(cc1C)[n+](Cc1ccc3ccccc3n1)cn2Cc1ccc2ccccc2n1.[Cl-]
1.05
[Br-].c1ccc2cc(Cn3c[n+](Cc4ccc5ccccc5c4)c4ccccc43)ccc2c1
0.47

Briefly, log10 of TGI measured for "Cc1cc2c(cc1C)[n+](Cc1ccc3ccccc3c1)cn2Cc1ccc2ccccc2c1.[Br-]" : 0.46

Briefly, log10 of TGI measured for "[Cl-].c1ccc2nc(Cn3c[n+](Cc4ccc5ccccc5n4)c4ccccc43)ccc2c1" : 1.37

Briefly, log10 of TGI measured for "CCCc1n(Cc2ccc3ccccc3c2)c2ccccc2[n+]1Cc1ccc2ccccc2c1.[Br-]" : 0.37

Briefly, log10 of TGI measured for "COCCOCCOCc1n(Cc2ccc3ccccc3n2)c2ccccc2[n+]1Cc1ccc2ccccc2c1.[Br-]" : 1.03

Briefly, log10 of TGI measured for "Cc1n(Cc2ccc3ccccc3c2)c2ccccc2[n+]1Cc1ccc2ccccc2c1.[Br-]" : 0.61

* * *

# run-description: Aqueous solubility of the compound
# Type: physicochemical
property-measured: solubility

OCCCc1n(Cc2ccc3ccccc3c2)c2ccccc2[n+]1Cc1ccc2ccccc2c1.[Br-]
< 500 µg/mL
Cc1cc2c(cc1C)[n+](Cc1ccc3ccccc3c1)cn2Cc1ccc2ccccc2c1.[Br-]
< 500 µg/mL
CCCCc1n(Cc2ccc3ccccc3c2)c2ccccc2[n+]1Cc1ccc2ccccc2c1.[Br-]
< 500 µg/mL
COCCOCCOCc1n(Cc2ccc3ccccc3c2)c2cc(C)c(C)cc2[n+]1Cc1ccc2ccccc2c1.[Br-]
1000 µg/mL
CCCc1n(Cc2ccc3ccccc3c2)c2ccccc2[n+]1Cc1ccc2ccccc2c1.[Br-]
< 500 µg/mL

Briefly, solubility measured for "OCCCc1n(Cc2ccc3ccccc3n2)c2ccccc2[n+]1Cc1ccc2ccccc2c1.[Br-]" : < 500 µg/mL

Briefly, solubility measured for "COCCc1n(Cc2ccc3ccccc3c2)c2ccccc2[n+]1Cc1ccc2ccccc2c1.[Br-]" : < 500 µg/mL

Briefly, solubility measured for "COC(=O)c1cc2c(cc1C(=O)OC)[n+](Cc1ccc3ccccc3c1)cn2Cc1ccc2ccccc2c1.[Br-]" : < 500 µg/mL

Briefly, solubility measured for "Cl.O=C(O)c1ccc2c(c1)n(Cc1ccc3ccccc3c1)c[n+]2Cc1ccc2ccccc2c1.[Br-]" : < 500 µg/mL

* * *

# run-description: Cytotoxicity against human HCC827 cells assessed as decrease in cell viability after 72 hrs by MTT assay
# Assay type: functional, cell-based
# measurement-context: HCC827, 72 h
property-measured: IC50 (µM)
Reply numerically in µM, unit not repeated.

Cc1cc2c(cc1C)[n+](Cc1ccc3ccccc3c1)cn2Cc1ccc2ccccc2c1.[Br-]
2
COC(=O)c1cc2c(cc1C(=O)OC)[n+](Cc1ccc3ccccc3c1)cn2Cc1ccc2ccccc2c1.[Br-]
20
CCc1n(Cc2ccc3ccccc3c2)c2ccccc2[n+]1Cc1ccc2ccccc2c1.[Br-]
4
[Br-].c1ccc2cc(Cn3c[n+](Cc4ccc5ccccc5c4)c4ccccc43)ccc2c1
3
COCCOCCOCc1n(Cc2ccc3ccccc3n2)c2ccccc2[n+]1Cc1ccc2ccccc2c1.[Br-]
6
COCCc1n(Cc2ccc3ccccc3c2)c2ccccc2[n+]1Cc1ccc2ccccc2c1.[Br-]
3

Briefly, IC50 measured for "COCCOCCOCc1n(Cc2ccc3ccccc3c2)c2cc(C)c(C)cc2[n+]1Cc1ccc2ccccc2c1.[Br-]" : 2

Briefly, IC50 measured for "Cc1cc2c(cc1C)[n+](Cc1ccc3ccccc3n1)cn2Cc1ccc2ccccc2n1.[Cl-]" : 3

* * *

# run-description: Aqueous solubility of the compound
# Assay type: physicochemical
property-measured: solubility (µg/mL)
Reply numerically in µg/mL, unit not repeated.

Guide cases for solubility, answers given:
[Cl-].c1ccc2nc(Cn3c[n+](Cc4ccc5ccccc5n4)c4ccccc43)ccc2c1
2400
COCCOCCOCc1n(Cc2ccc3ccccc3c2)c2ccccc2[n+]1Cc1ccc2ccccc2c1.[Br-]
700
Cc1cc2c(cc1C)[n+](Cc1ccc3ccccc3n1)cn2Cc1ccc2ccccc2n1.[Cl-]
1400
COCCOCCOCc1n(Cc2ccc3ccccc3n2)c2ccccc2[n+]1Cc1ccc2ccccc2n1.[Cl-]
42200

Here is the next item to consider.
Briefly, solubility measured for "COCCOCCOCc1n(Cc2ccc3ccccc3n2)c2ccccc2[n+]1Cc1ccc2ccccc2c1.[Br-]" : 1900

* * *

# run-description: Growth inhibition of human NCI-H460 cells after 48 hrs by SRB assay
# Type: functional
# measurement-context: NCI-H460, 48 h
property-measured: TGI (nM)
Reply numerically in nM, unit not repeated.

Guide cases for TGI, answers given:
[Cl-].c1ccc2nc(Cn3c[n+](Cc4ccc5ccccc5n4)c4ccccc43)ccc2c1
12300
Cc1n(Cc2ccc3ccccc3c2)c2ccccc2[n+]1Cc1ccc2ccccc2c1.[Br-]
3020
Cc1cc2c(cc1C)[n+](Cc1ccc3ccccc3n1)cn2Cc1ccc2ccccc2n1.[Cl-]
2210
[Br-].c1ccc2cc(Cn3c[n+](Cc4ccc5ccccc5c4)c4ccccc43)ccc2c1
2910
COCCOCCOCc1n(Cc2ccc3ccccc3n2)c2ccccc2[n+]1Cc1ccc2ccccc2c1.[Br-]
1560
CCCc1n(Cc2ccc3ccccc3c2)c2ccccc2[n+]1Cc1ccc2ccccc2c1.[Br-]
1360

Here is the next item to consider.
Briefly, TGI measured for "OCCCc1n(Cc2ccc3ccccc3c2)c2ccccc2[n+]1Cc1ccc2ccccc2c1.[Br-]" : 9570

* * *

# run-description: Cytotoxicity against human NCI-H322M cells assessed as cell growth at 10 uM after 48 hrs by SRB assay relative to control
# Format: functional
# measurement-context: read-out: Activity
Grouping key: growth at 10 µM. Bins: LOW = under 30%, MID = from 30% up to 60%, HIGH = 60% and over

Observe how each entry below is paired with its result.
Cc1cc2c(cc1C)[n+](Cc1ccc3ccccc3c1)cn2Cc1ccc2ccccc2c1.[Br-]
LOW
CCc1n(Cc2ccc3ccccc3c2)c2ccccc2[n+]1Cc1ccc2ccccc2c1.[Br-]
HIGH
COC(=O)c1ccc2c(c1)n(Cc1ccc3ccccc3c1)c[n+]2Cc1ccc2ccccc2c1.[Br-]
MID
Cc1cc2c(cc1C)[n+](Cc1ccc3ccccc3n1)cn2Cc1ccc2ccccc2n1.[Cl-]
MID
COC(=O)CCc1n(Cc2ccc3ccccc3c2)c2ccccc2[n+]1Cc1ccc2ccccc2c1.[Br-]
MID

Field: next molecule
Task: Using the reported growth at 10 µM, which band applies to "COC(=O)c1cc2c(cc1C(=O)OC)[n+](Cc1ccc3ccccc3c1)cn2Cc1ccc2ccccc2c1.[Br-]" ?
Result: HIGH

* * *

# run-description: Growth inhibition of human NCI-H322M cells after 48 hrs by SRB assay
# Assay type: functional
Measured GI50 by item
Reply numerically in nM, unit not repeated.

Guide cases for GI50, answers given:
[Br-].c1ccc2cc(Cn3c[n+](Cc4ccc5ccccc5c4)c4ccccc43)ccc2c1
1490
[Cl-].c1ccc2nc(Cn3c[n+](Cc4ccc5ccccc5n4)c4ccccc43)ccc2c1
3680
Cc1cc2c(cc1C)[n+](Cc1ccc3ccccc3n1)cn2Cc1ccc2ccccc2n1.[Cl-]
1370
CCCCc1n(Cc2ccc3ccccc3c2)c2ccccc2[n+]1Cc1ccc2ccccc2c1.[Br-]
1220

Here is the next item to consider.
Briefly, GI50 measured for "Cc1n(Cc2ccc3ccccc3c2)c2ccccc2[n+]1Cc1ccc2ccccc2c1.[Br-]" : 1560

* * *

Measured IC50 by item
# run-description: Cytotoxicity against human A549 cells assessed as decrease in cell viability after 72 hrs by MTT assay
# Type: functional, cell-based
# measurement-context: A549, 72 h
Reply numerically in µM, unit not repeated.

COCCOCCOCc1n(Cc2ccc3ccccc3n2)c2ccccc2[n+]1Cc1ccc2ccccc2n1.[Cl-]
9
COCCc1n(Cc2ccc3ccccc3c2)c2ccccc2[n+]1Cc1ccc2ccccc2c1.[Br-]
3
Cc1cc2c(cc1C)[n+](Cc1ccc3ccccc3n1)cn2Cc1ccc2ccccc2n1.[Cl-]
4

Briefly, IC50 measured for "CCc1n(Cc2ccc3ccccc3c2)c2ccccc2[n+]1Cc1ccc2ccccc2c1.[Br-]" : 3

Briefly, IC50 measured for "OCCCc1n(Cc2ccc3ccccc3c2)c2ccccc2[n+]1Cc1ccc2ccccc2c1.[Br-]" : 10

Briefly, IC50 measured for "[Cl-].c1ccc2nc(Cn3c[n+](Cc4ccc5ccccc5n4)c4ccccc43)ccc2c1" : 10

Briefly, IC50 measured for "COC(=O)c1ccc2c(c1)n(Cc1ccc3ccccc3c1)c[n+]2Cc1ccc2ccccc2c1.[Br-]" : 16

Briefly, IC50 measured for "CCCCc1n(Cc2ccc3ccccc3c2)c2ccccc2[n+]1Cc1ccc2ccccc2c1.[Br-]" : 2

Briefly, IC50 measured for "COC(=O)CCc1n(Cc2ccc3ccccc3c2)c2ccccc2[n+]1Cc1ccc2ccccc2c1.[Br-]" : 8

* * *

# run-description: Cytotoxicity against human HCC827 cells assessed as decrease in cell viability after 72 hrs by MTT assay
# Format: functional, cell-based
# measurement-context: HCC827, 72 h
property-measured: IC50 (µM)
Reply numerically in µM, unit not repeated.

OCCCc1n(Cc2ccc3ccccc3n2)c2ccccc2[n+]1Cc1ccc2ccccc2c1.[Br-]
11
[Cl-].c1ccc2nc(Cn3c[n+](Cc4ccc5ccccc5n4)c4ccccc43)ccc2c1
6

Briefly, IC50 measured for "CCCCc1n(Cc2ccc3ccccc3c2)c2ccccc2[n+]1Cc1ccc2ccccc2c1.[Br-]" : 2

Briefly, IC50 measured for "O=C(OCc1ccc2ccccc2c1)c1ccc2c(c1)n(Cc1ccc3ccccc3c1)c[n+]2Cc1ccc2ccccc2c1.[Br-]" : 7

Briefly, IC50 measured for "COC(=O)Cc1n(Cc2ccc3ccccc3c2)c2ccccc2[n+]1Cc1ccc2ccccc2c1.[Br-]" : 8
